Hello, the source for this data is patent US4199573A, in case you need it.

# Klebsiella aeruginosa: MIC values follow
Provide only the numeric value, understood in µg/mL.

Consider CCCCCS(=O)(=O)N1N=Cc2ccccc2B1O [(CH2)4CH3, H] . Its measured MIC is 8

Consider Cc1ccc2c(c1)C=NN(S(=O)(=O)CCCCl)B2O [Compound 10] . Its measured MIC is 1

Consider `Cc1ccc2c(c1)C=NN(S(=O)(=O)CC(C)C)B2O` . Its measured MIC is 2

Consider CCCS(=O)(=O)N1N=Cc2cc(F)ccc2B1O [Compound 11] . Its measured MIC is 8

Consider CC(C)CS(=O)(=O)N1N=Cc2ccccc2B1O [drawing 4] . Its measured MIC is 4

Consider CCCS(=O)(=O)N1N=Cc2ccccc2B1O [Compound 2] . Its measured MIC is 8

Consider CCc1ccc2c(c1)C=NN(S(=O)(=O)CCCCl)B2O [CH2CH2CH2Cl, C2 H5] . Its measured MIC is 2

Consider CCCS(=O)(=O)N1N=Cc2cc(CC)ccc2B1O [CH2CH2CH3, C2 H5] . Its measured MIC is 1

Consider O=S(=O)(CCCCl)N1N=Cc2cc(F)ccc2B1O [CH2CH2CH2 Cl, F] . Its measured MIC is 8
